Measured values drawn from the Human Domainome abundance scans (Beltran et al. 2025) for this set.

Each record here notes measured abundance fitness.
B1: Formin-binding protein 4, residues 200 to 261; numbered along this chain, Q8N3X1 (parent)
chain: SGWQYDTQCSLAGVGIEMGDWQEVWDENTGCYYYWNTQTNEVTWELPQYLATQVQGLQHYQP

variants of: B1; assay: abundance fitness (aPCA) (normalised: wild type 0, dead -1); higher = more abundant; growth selection in yeast, the domain comes from the species named; settings: Homo sapiens
Hey, just send me the number, nothing else.

Observe how each entry below is paired with its result.
In [3]: df
Out[3]:
   variant_spec        metric_name  measured_result
0          C31E  abundance fitness           -0.422
1          W44A  abundance fitness           -0.221
2          W44N  abundance fitness            0.068
3          G19R  abundance fitness           -0.722

Query block: Could you tell me which abundance fitness is on file for "W3R" ?
Result block: -0.202

Query block: Could you tell me which abundance fitness is on file for "N36K" ?
Result block: -0.663

Query block: Could you tell me which abundance fitness is on file for "E27M" ?
Result block: -0.381
